pEC50: −log10 of the molar value.
What follows is a record of pEC50 for Peroxisome proliferator-activated receptor delta (Homo sapiens, UniProt Q03181).
Measure Name: pEC50

Smiles Notation: O=C(O)Cc1csc2cc(OCc3cc(-c4ccc(C(F)(F)F)cc4)on3)cc(Cl)c12
Study System: Peroxisome proliferator-activated receptor delta (Homo sapiens, UniProt Q03181)
Result Value: 5.63
--
Smiles Notation: O=C(O)Cn1ccc2cc(OCc3cc(-c4ccc(C(F)(F)F)cc4)on3)ccc21
Study System: Peroxisome proliferator-activated receptor delta (Homo sapiens, UniProt Q03181)
Result Value: 5.86
--
Smiles Notation: O=C(O)Cc1csc2cc(OCc3cc(-c4ccc(C(F)(F)F)cc4)on3)ccc12
Study System: Peroxisome proliferator-activated receptor delta (Homo sapiens, UniProt Q03181)
Result Value: 6.52
--
Smiles Notation: Cc1nc(C(F)(F)F)sc1COc1ccc2c(ccn2CC(=O)O)c1
Study System: Peroxisome proliferator-activated receptor delta (Homo sapiens, UniProt Q03181)
Result Value: 6.65
--
Smiles Notation: Cc1nc(-c2ccc(C(F)(F)F)cc2)sc1COc1ccc2c(CC(=O)O)coc2c1
Study System: Peroxisome proliferator-activated receptor delta (Homo sapiens, UniProt Q03181)
Result Value: 6.61

I: Cc1nc(C(F)(F)F)sc1CSc1ccc2c(ccn2CC(=O)O)c1
II: O=C(O)Cc1coc2cc(OCc3cc(-c4ccc(Cl)cc4)on3)ccc12
III: O=C(O)Cc1coc2cc(OCc3cc(-c4ccc(C(F)(F)F)cc4)on3)ccc12
IV: O=C(O)Cc1coc2cc(OCc3ccc(COc4ccc(C(F)(F)F)cc4)cc3)ccc12
rank_up(items): orders items by reported pEC50 in ascending numerical order. # answer = labels listed in requested order
IV, III, II, I

---

Peroxisome proliferator-activated receptor alpha (Homo sapiens, UniProt Q07869): recorded IC50 for assorted compounds
Sequence (Q07869 whole entry): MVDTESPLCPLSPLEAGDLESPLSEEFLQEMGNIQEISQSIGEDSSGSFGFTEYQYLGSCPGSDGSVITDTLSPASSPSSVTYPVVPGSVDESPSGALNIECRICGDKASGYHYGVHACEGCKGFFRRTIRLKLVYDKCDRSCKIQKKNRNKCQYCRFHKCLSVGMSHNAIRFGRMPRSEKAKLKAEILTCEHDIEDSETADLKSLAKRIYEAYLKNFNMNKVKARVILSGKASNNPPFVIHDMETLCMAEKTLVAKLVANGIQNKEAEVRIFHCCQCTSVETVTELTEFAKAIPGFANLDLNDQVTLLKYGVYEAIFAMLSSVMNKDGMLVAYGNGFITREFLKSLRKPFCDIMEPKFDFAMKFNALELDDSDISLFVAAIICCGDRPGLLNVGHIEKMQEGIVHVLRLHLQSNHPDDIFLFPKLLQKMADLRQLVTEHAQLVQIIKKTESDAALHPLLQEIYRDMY
Measure Name: IC50 (nM)

Examples with their reported IC50 follow.
Smiles Notation: Cc1cc2c(CC(=O)O)csc2cc1OCc1sc(-c2ccc(C(F)(F)F)cc2)nc1C
Study System: Peroxisome proliferator-activated receptor alpha (Homo sapiens, UniProt Q07869)
IC50 / nM: 683

Smiles Notation: Cc1nc(-c2ccc(C(F)(F)F)cc2)sc1COc1cc(Cl)c2c(CC(=O)O)csc2c1
Study System: Peroxisome proliferator-activated receptor alpha (Homo sapiens, UniProt Q07869)
IC50 / nM: 1040

Smiles Notation: Cc1cc(OCc2cc(-c3ccc(C(F)(F)F)cc3)on2)cc2scc(CC(=O)O)c12
Study System: Peroxisome proliferator-activated receptor alpha (Homo sapiens, UniProt Q07869)
IC50 / nM: 1470

Smiles Notation: Cc1nc(C(F)(F)F)sc1COc1ccc2c(ccn2CC(=O)O)c1
Study System: Peroxisome proliferator-activated receptor alpha (Homo sapiens, UniProt Q07869)
IC50 / nM: 550

Smiles Notation: Cc1nc(-c2ccc(C(F)(F)F)cc2)sc1COc1ccc2c(CC(=O)O)coc2c1
Study System: Peroxisome proliferator-activated receptor alpha (Homo sapiens, UniProt Q07869)
IC50 / nM: 679

1: O=C(O)Cc1coc2cc(OCc3cccc(COc4ccc(C(F)(F)F)cc4)c3)ccc12
2: O=C(O)Cc1csc2cc(OCc3ccc(COc4ccc(C(F)(F)F)cc4)cc3)ccc12
Endpoint returns the identifier whose IC50 is numerically larger, either 1 or 2 . Identify your selection by its label.
1
(1: 2500 nM, 2: 229 nM)

P: O=C(O)Cn1ccc2cc(OCc3ccc(Oc4ccc(C(F)(F)F)cc4)cc3)ccc21
Q: Cc1cc2c(CC(=O)O)csc2cc1OCc1cc(-c2ccc(Cl)cc2)on1
R: O=C(O)Cc1coc2cc(OCc3cc(-c4ccc(Cl)cc4)on3)ccc12
S: Cc1cc(OCc2cc(-c3ccc(Cl)cc3)on2)cc2scc(CC(=O)O)c12
Put these in order: smallest IC50 first, largest last. To answer, write out the labels according to the requested order.
S, P, R, Q

a: Cc1nc(-c2ccc(C(F)(F)F)cc2)sc1COc1ccc2c(CC(=O)O)csc2c1
b: O=C(O)Cn1ccc2cc(OCc3cc(-c4ccc(C(F)(F)F)cc4)on3)ccc21
a or b : whose IC50 is greater? // return label of chosen record
b

---

# Study System: Peroxisome proliferator-activated receptor delta (Homo sapiens, UniProt Q03181)
pEC50: −log10 of the molar value.
Measure Name: pEC50

These recorded examples may help you get a feel for the data.
Smiles Notation: O=C(O)Cc1coc2cc(OCc3ccccc3COc3ccc(C(F)(F)F)cc3)ccc12
Measure Name: pEC50
Result Value: 5.51
--
Smiles Notation: O=C(O)Cc1csc2cc(OCc3cc(-c4ccc(Cl)cc4)on3)ccc12
Measure Name: pEC50
Result Value: 6.65

a: O=C(O)Cc1csc2cc(OCc3ccccc3COc3ccc(C(F)(F)F)cc3)ccc12
b: O=C(O)Cn1ccc2cc(OCc3cccc(COc4ccc(C(F)(F)F)cc4)c3)ccc21
c: O=C(O)Cc1csc2cc(OCc3cc(-c4ccc(Cl)cc4)on3)cc(Cl)c12
Order each entry by recorded pEC50, climbing from the minimum. // respond by listing labels in the order requested
c, a, b
(c: 5.20, a: 5.65, b: 6.60)

---

A short record of IC50 observed with Peroxisome proliferator-activated receptor alpha (Homo sapiens) follows.
Measure Name: IC50 (nM)

Smiles Notation: O=C(O)Cc1csc2cc(OCc3cc(-c4ccc(C(F)(F)F)cc4)on3)ccc12
Result Value: 261

a: O=C(O)Cn1ccc2cc(OCc3cccc(COc4ccc(C(F)(F)F)cc4)c3)ccc21
b: O=C(O)Cc1csc2cc(OCc3cc(-c4ccc(Cl)cc4)on3)ccc12
c: O=C(O)Cc1coc2cc(OCc3ccc(COc4ccc(C(F)(F)F)cc4)cc3)ccc12
Order the entries by their reported IC50, beginning at the minimum. Sort and list the labels as requested.
a, c, b

---

# Study System: Peroxisome proliferator-activated receptor delta (Homo sapiens, UniProt Q03181)
# Sequence (Q03181 whole entry): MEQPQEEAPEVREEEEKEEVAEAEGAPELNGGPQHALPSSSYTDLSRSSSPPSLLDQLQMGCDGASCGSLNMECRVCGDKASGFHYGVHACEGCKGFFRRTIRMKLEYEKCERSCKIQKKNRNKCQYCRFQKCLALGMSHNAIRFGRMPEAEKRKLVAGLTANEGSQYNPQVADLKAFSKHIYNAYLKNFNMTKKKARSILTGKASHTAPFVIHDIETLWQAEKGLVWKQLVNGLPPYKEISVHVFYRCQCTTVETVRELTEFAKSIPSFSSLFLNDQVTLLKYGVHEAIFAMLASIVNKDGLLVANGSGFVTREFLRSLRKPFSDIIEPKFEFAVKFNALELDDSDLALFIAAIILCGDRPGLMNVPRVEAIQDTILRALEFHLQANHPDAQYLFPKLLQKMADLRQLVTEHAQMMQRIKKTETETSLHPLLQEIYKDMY
pEC50: −log10 of the molar value.
Measure Name: pEC50

Examples with answers:
Smiles Notation: O=C(O)Cn1ccc2cc(OCc3ccc(Oc4ccc(C(F)(F)F)cc4)cc3)ccc21
Study System: Peroxisome proliferator-activated receptor delta (Homo sapiens, UniProt Q03181)
pEC50: 5.55
--
Smiles Notation: Cc1cc2c(CC(=O)O)csc2cc1OCc1cc(-c2ccc(Cl)cc2)on1
Study System: Peroxisome proliferator-activated receptor delta (Homo sapiens, UniProt Q03181)
pEC50: 6.18
--
Smiles Notation: Cc1cc(OCc2cc(-c3ccc(C(F)(F)F)cc3)on2)cc2scc(CC(=O)O)c12
Study System: Peroxisome proliferator-activated receptor delta (Homo sapiens, UniProt Q03181)
pEC50: 6.25

I: Cc1cc(OCc2cc(-c3ccc(Cl)cc3)on2)cc2scc(CC(=O)O)c12
II: Cc1nc(-c2ccc(C(F)(F)F)cc2)sc1COc1cc(Cl)c2c(CC(=O)O)csc2c1
Select one: I or II . Criterion: greater recorded pEC50. Answer = label.
II
(II: 6.64, I: 6.20)

---

# Study System: Peroxisome proliferator-activated receptor delta (Homo sapiens, UniProt Q03181)
pIC50: −log10 of the molar value.
Measure Name: pIC50

1: O=C(O)Cn1ccc2cc(OCc3cc(-c4ccc(C(F)(F)F)cc4)on3)ccc21
2: O=C(O)Cn1ccc2cc(OCc3ccc(Oc4ccc(C(F)(F)F)cc4)cc3)ccc21
3: Cc1nc(-c2ccc(C(F)(F)F)cc2)sc1COc1ccc2c(CC(=O)O)coc2c1
4: O=C(O)Cc1coc2cc(OCc3ccccc3COc3ccc(C(F)(F)F)cc3)ccc12
5: Cc1nc(-c2ccc(C(F)(F)F)cc2)sc1COc1cc(Cl)c2c(CC(=O)O)csc2c1
Arrange by pIC50, high to low. Write the labels, ordered according to the request.
3, 1, 5, 2, 4

1: O=C(O)Cc1coc2cc(OCc3ccc(COc4ccc(C(F)(F)F)cc4)cc3)ccc12
2: O=C(O)Cn1ccc2cc(OCc3cccc(COc4ccc(C(F)(F)F)cc4)c3)ccc21
3: Cc1cc(OCc2cc(-c3ccc(C(F)(F)F)cc3)on2)cc2scc(CC(=O)O)c12
Arrange items by their pIC50 values in increasing order. Answer by listing the labels in the order asked for.
1, 3, 2
